experimental-system: Sulfonylurea receptor 1, Kir6.2 (Homo sapiens) (UniProt Q14654+Q09428)
test-method-notes: Antiarrhythmic effect in hSUR1/hKir6.2 (pancreatic KATP channel) transfected in CHO cells at a dose of 10 uM
Format: functional, cell-based
condition: at 10 µM
Give MET when the value for inhibition is at least 60%. Give NOT MET when it is less.

>>> class_assignment("CN/C(S)=N/S(=O)(=O)c1cccc(CCNC(=O)c2cc(Cl)ccc2OC)c1")
"NOT MET"
>>> class_assignment("CNC(=O)NS(=O)(=O)c1cc2c(cc1OC)OCCC2CNC(=O)c1cc(Cl)ccc1OC (single isomer, unassigned; (-))")
"MET"
>>> class_assignment("COc1ccc(Cl)cc1C(=O)NCCc1ccc(OC)c(S(=O)(=O)/N=C(/N)S)c1")
"MET"
>>> class_assignment("CN/C(S)=N/S(=O)(=O)c1cc(CCNC(=O)c2cc(Cl)ccc2OC)ccc1OC(F)(F)F")
"MET"
>>> class_assignment("CN/C(S)=N/S(=O)(=O)c1cc(CCNC(=O)c2cc(Cl)ccc2OC)ccc1Cl")
"NOT MET"
